# study_system: Tyrosine-protein phosphatase non-receptor type 1 (Homo sapiens)
# Sequence (P18031 whole entry): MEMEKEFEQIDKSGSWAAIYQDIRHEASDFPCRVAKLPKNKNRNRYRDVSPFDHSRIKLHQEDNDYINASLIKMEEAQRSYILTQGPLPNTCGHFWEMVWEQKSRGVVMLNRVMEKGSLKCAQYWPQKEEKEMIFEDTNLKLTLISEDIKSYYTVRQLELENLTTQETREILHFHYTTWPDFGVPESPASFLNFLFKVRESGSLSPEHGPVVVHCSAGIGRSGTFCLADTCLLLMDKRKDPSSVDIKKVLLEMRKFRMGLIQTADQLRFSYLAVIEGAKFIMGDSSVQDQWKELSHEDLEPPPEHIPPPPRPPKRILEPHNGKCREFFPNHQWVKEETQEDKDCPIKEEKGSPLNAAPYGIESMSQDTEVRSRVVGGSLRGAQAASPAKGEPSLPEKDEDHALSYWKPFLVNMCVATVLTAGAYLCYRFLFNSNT
# measurement_description: Inhibition of human recombinant GST-tagged PTP1B expressed in Escherichia coli TB1 cells using p-NPP as substrate
observable: IC50 (µM)

[
  {
    "chemical_smiles": "CCOC(=O)C(=O)Nc1nc2ccc(F)cc2s1",
    "study_system": "Tyrosine-protein phosphatase non-receptor type 1 (Homo sapiens)",
    "scale_unit": "µM",
    "IC50": 8.7
  },
  {
    "chemical_smiles": "CCOC(=O)C(=O)Nc1nc2ccc(C)cc2s1",
    "study_system": "Tyrosine-protein phosphatase non-receptor type 1 (Homo sapiens)",
    "scale_unit": "µM",
    "IC50": 11
  },
  {
    "chemical_smiles": "CCOC(=O)C(=O)Nc1nc2ccc(Cl)cc2s1",
    "study_system": "Tyrosine-protein phosphatase non-receptor type 1 (Homo sapiens)",
    "scale_unit": "µM",
    "IC50": 10.1
  }
]
